These data points were gathered from patent US10688194B2.

# Test system: SKB3
# experiment: Inhibition of cancer cell proliferation by delivered small molecule drugs
# Type: cell-based
# test_context: text of b118, cell line not stated; values match SKB3 line of Table 4; read-out: IC50, proliferation of cancer cells
measured_endpoint: IC50 (µM)
Write down the numeric answer in µM and omit the unit.

## Task Fill in: IC50 of COc1cccc2c1C(=O)c1c(O)c3c(c(O)c1C2=O)C[C@@](O)(C(=O)CO)C[C@@H]3O[C@H]1C[C@H](N)[C@H](O)[C@H](C)O1 is ___
## Result 10

---

# experiment: Fluorescence titration, VEPEP-3/cargo binding: small hydrophobic molecule
# test_context: cargo: Doxorubicine; read-out: Kd, SHM
Assign Kd to each entry below.
Write down the numeric answer in nM and omit the unit.

## Task Fill in: Kd of X1LWWSRWWRSWFRLWFR [VEPEP-3g] is ___
## Result 20

## Task Input X1LWWRRWWSRWWPRWRR [VEPEP-3f]
## Result 20

## Task Input X1KWWERWWREWPRKRK [VEPEP-3b]
## Result 500

## Task Input X1KWFERWFREWPRKRR [VEPEP-3a]
## Result 1000

## Task Input X1RWWRLWWRSWFRLWRR [VEPEP-3e]
## Result 20

## Task Input X1RWWEKWWTRWPRKRK [VEPEP-3c]
## Result 200

## Task Input X1RWYEKWYTEFPRRRR [VEPEP-3d]
## Result 100

---

# Test system: HeLa and U2OS cells
# experiment: Toxicity of VEPEP-3 particles, MTT assay and cyclophilin mRNA level
# test_context: levels up to 200 nM; complexed with short peptide and PNA at ratio 1/20
measured_endpoint: toxicity

Sample answers from the record:
{"columns": ["substance", "toxicity"],
 "data": [
  ["X1LWWRRWWSRWWPRWRR [VEPEP-3f]", "No toxicity"],
  ["X1RWWRLWWRSWFRLWRR [VEPEP-3e]", "No toxicity"],
  ["X1LWWSRWWRSWFRLWFR [VEPEP-3g]", "No toxicity"],
  ["X1RWYEKWYTEFPRRRR [VEPEP-3d]", "No toxicity"],
  ["X1RWWEKWWTRWPRKRK [VEPEP-3c]", "No toxicity"]
]}

With those in mind, consider the next substance.
## Task Fill in: toxicity of X1KWWERWWREWPRKRK [VEPEP-3b] is ___
## Result No toxicity

---

Assign Kd to each entry below.
# tested_target: PNA (15 mer-PNA)
# experiment: Fluorescence titration, VEPEP-3/cargo binding: PNA
# test_context: cargo: 15 mer-PNA
Write the figure, then the unit, nothing else.

## Task Fill in: Kd of X1KWFERWFREWPRKRR [VEPEP-3a] is ___
## Result 100 nM

## Task Input X1RWYEKWYTEFPRRRR [VEPEP-3d]
## Result 100 nM

## Task Input X1KWWERWWREWPRKRK [VEPEP-3b]
## Result 200 nM

## Task Input X1RWWEKWWTRWPRKRK [VEPEP-3c]
## Result 200 nM

---

# tested_target: protein (GFP & Nanobody)
# experiment: Fluorescence titration, VEPEP-3/cargo binding: protein
# test_context: cargo: protein (GFP & Nanobody)
measured_endpoint: Kd

## Task Fill in: Kd of X1RWWRLWWRSWFRLWRR [VEPEP-3e] is ___
## Result 20 to 100 nM

## Task Input X1LWWRRWWSRWWPRWRR [VEPEP-3f]
## Result 20 to 100 nM

## Task Input X1LWWSRWWRSWFRLWFR [VEPEP-3g]
## Result 20 to 100 nM
